- Tested on: cultured mouse ORNs
- assay.name: confocal calcium imaging of fluo-4 AM loaded cultured ORNs
- Type: cell-based
- test.settings: Mus musculus; averaged dose-response, maximum % ΔF/F relative to 10 μM ATP, n=58; read-out: EC50 of ATP-induced [Ca2+]i increases
assay.metric: pEC50
Lab note: report pEC50 as minus log10 of the concentration in molar units, number only.

Quick one: pEC50 of Nc1ncnc2c1ncn2[C@@H]1O[C@H](COP(=O)(O)OP(=O)(O)OP(=O)(O)O)[C@@H](O)[C@H]1O [ATP, Adenosine 5′-triphosphate] ?
5.80

Source listed as patent US7557092B2.
